Some molecules, each annotated with its measured microsomal CLint at 1 μM.
# assay.info: Microsomal stability assay, rat liver microsome
# Assay type: in vitro ADME
# condition.parameters: liver microsomes, pH 7.4, 0.2 mg/mL, 1 μM compound, 37° C., read-out: Clint RLM
Quote the value and follow it with the unit of measurement.

Value of microsomal CLint at 1 μM reported for the molecule N#Cc1cnc(Nc2cc(-c3ccccc3OCC3CCCNC3)on2)cn1 (stereo not drawn) [Compound 1.3] is 61 µL/min/mg

Value of microsomal CLint at 1 μM reported for the molecule N#Cc1cnc(Nc2cc(-c3ccccc3OCCCN)on2)cn1 [Compound 1.5] is 70 µL/min/mg

Value of microsomal CLint at 1 μM reported for the molecule N#Cc1cnc(Nc2cc(-c3ccccc3OC3CNC3)on2)cn1 [Compound 1.4] is 27 µL/min/mg

Value of microsomal CLint at 1 μM reported for the molecule N#Cc1cnc(Nc2cc(-c3ccccc3OCCN)on2)cn1 [Compound 1.7] is 118 µL/min/mg

Value of microsomal CLint at 1 μM reported for the molecule N#Cc1cnc(Nc2cc(-c3ccccc3OC3CC4(CNC4)C3)on2)cn1 [Compound 1.21] is 37 µL/min/mg

More entries:
Value of microsomal CLint at 1 μM reported for the molecule N#Cc1cnc(Nc2cc(-c3cc4ccccc4cc3OCCCN)[nH]n2)cn1 [Compound 2.7] is 44 µL/min/mg

Value of microsomal CLint at 1 μM reported for the molecule COc1cc(C2=CCN(C)CC2)ccc1-c1cc(Nc2cnc(C#N)cn2)on1 [Compound 1.22] is 142 µL/min/mg

Value of microsomal CLint at 1 μM reported for the molecule N#Cc1cnc(Nc2cc(-c3cc4ccccc4cc3OCC3CNC3)[nH]n2)cn1 [Compound 2.2] is 45 µL/min/mg

Value of microsomal CLint at 1 μM reported for the molecule COc1cc(C2=CCNCC2)ccc1-c1cc(Nc2cnc(C#N)cn2)no1 [Compound 1.19] is 88 µL/min/mg

Value of microsomal CLint at 1 μM reported for the molecule N#Cc1cnc(Nc2cc(-c3ccccc3OC3CC(N)C3)on2)cn1 (stereo not drawn) [Compound 1.20] is 46 µL/min/mg

Value of microsomal CLint at 1 μM reported for the molecule N#Cc1cnc(Nc2cc(-c3cc4ccccc4cc3OCC3CCNC3)[nH]n2)cn1 (stereo not drawn) [Compound 2.4] is 94 µL/min/mg

* * *

Some molecules, each annotated with its measured solubility kinetic at 1 h.
# assay.info: Kinetic solubility assay (nephelometry)
# condition.parameters: PBS, 37 °C, pH 7.4, aqueous buffer, kinetic from dmso stock
Value expressed in µM; do not type the unit.

Value of solubility kinetic at 1 h reported for the molecule N#Cc1cnc(Nc2cc(-c3cc4ccccc4cc3OCC3CCNCC3)[nH]n2)cn1 is 34.7

Value of solubility kinetic at 1 h reported for the molecule N#Cc1cnc(Nc2cc(-c3ccccc3OCC3CNCCO3)on2)cn1 (stereo not drawn) is 44

Value of solubility kinetic at 1 h reported for the molecule CN1CCCC(COc2ccccc2-c2cc(Nc3cnc(C#N)cn3)no2)C1 (stereo not drawn) is 38.2

More entries:
Value of solubility kinetic at 1 h reported for the molecule CCC(C)N1CC(Oc2ccccc2-c2cc(Nc3cnc(C#N)cn3)no2)C1 (stereo not drawn) is 48

Value of solubility kinetic at 1 h reported for the molecule N#Cc1cnc(Nc2cc(-c3cc4ccccc4cc3OCC3CCCNC3)[nH]n2)cn1 (stereo not drawn) is 41.6

Value of solubility kinetic at 1 h reported for the molecule N#Cc1cnc(Nc2cc(-c3cc4ccccc4cc3OCCN)[nH]n2)cn1 is 18.8

Value of solubility kinetic at 1 h reported for the molecule N#Cc1cnc(Nc2cc(-c3ccccc3OC3CC4(CNC4)C3)on2)cn1 is 18.8

Value of solubility kinetic at 1 h reported for the molecule CC(C)N1CC(Oc2ccccc2-c2cc(Nc3cnc(C#N)cn3)no2)C1 is 11.9

Value of solubility kinetic at 1 h reported for the molecule CN1CC(Oc2ccccc2-c2cc(Nc3cnc(C#N)cn3)no2)C1 is 30.5

* * *

# assayed.system: CHK-1 kinase (Homo sapiens (Human), UniProt O14757)
# Sequence (O14757 whole entry): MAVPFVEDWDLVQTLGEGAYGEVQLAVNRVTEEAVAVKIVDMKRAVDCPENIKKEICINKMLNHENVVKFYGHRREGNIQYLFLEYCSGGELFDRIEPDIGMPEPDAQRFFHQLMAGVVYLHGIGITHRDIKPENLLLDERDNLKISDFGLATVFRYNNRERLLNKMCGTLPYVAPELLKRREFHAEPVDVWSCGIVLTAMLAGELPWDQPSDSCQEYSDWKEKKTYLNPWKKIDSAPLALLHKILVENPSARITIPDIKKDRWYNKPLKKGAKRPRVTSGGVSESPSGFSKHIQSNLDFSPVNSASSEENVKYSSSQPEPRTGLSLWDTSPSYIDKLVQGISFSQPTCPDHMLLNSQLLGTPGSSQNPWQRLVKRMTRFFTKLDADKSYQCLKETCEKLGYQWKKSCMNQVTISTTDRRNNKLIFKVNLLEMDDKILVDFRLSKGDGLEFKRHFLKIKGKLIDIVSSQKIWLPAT
# assay.info: CHK-1 % inhibition kinase assay (TR-FRET)
# Assay type: biochemical
# condition.parameters: CHK1 enzyme, compound 30 nM, ATP 15 μM
Some compounds, each annotated with its measured inhibition at 0.03 µM.
Value expressed in %; do not type the unit.

Sample records with inhibition at 0.03 µM:
Value of inhibition at 0.03 µM reported for the compound CN1CC(Oc2ccccc2-c2cc(Nc3cnc(C#N)cn3)no2)C1 is 44

Value of inhibition at 0.03 µM reported for the compound COc1ccccc1-c1cc(Nc2cnc(C#N)cn2)no1 is 12

More entries:
Value of inhibition at 0.03 µM reported for the compound N#Cc1cnc(Nc2cc(-c3ccccc3OCCN)on2)cn1 is 36

Value of inhibition at 0.03 µM reported for the compound CC(C)CC(C)N1CC(Oc2ccccc2-c2cc(Nc3cnc(C#N)cn3)no2)C1 (centres unmarked) is 21

Value of inhibition at 0.03 µM reported for the compound CN1CCCC(COc2ccccc2-c2cc(Nc3cnc(C#N)cn3)no2)C1 (centres unmarked) is 9

* * *

Some compounds, each annotated with its measured recovery at 120 min.
# assay.info: Caco-2 cell permeability assay
# Type: in vitro ADME
# condition.parameters: human, Caco-2, pH 7.4, Caco-2, solution recovery, B to A; read-out: Recovery % B to A
Value expressed in %; do not type the unit.

Sample records with recovery at 120 min:
Value of recovery at 120 min reported for the compound N#Cc1cnc(Nc2cc(-c3ccccc3OCC3CCNCC3)on2)cn1 [Compound 1.2] is 103

Value of recovery at 120 min reported for the compound N#Cc1cnc(Nc2cc(-c3ccccc3OCC3CCCNC3)on2)cn1 (stereo not drawn) [Compound 1.3] is 103

Here is the next item to consider.
Value of recovery at 120 min reported for the compound N#Cc1cnc(Nc2cc(-c3ccccc3OCC3CNCCO3)on2)cn1 (stereo not drawn) [Compound 1.1] is 102

* * *

# assay.info: Caco-2 cell permeability assay
# Assay type: in vitro ADME
# condition.parameters: human; Caco-2, B to A, 120 minutes, pH 7.4
# Method: After thawed, Caco-2 cells were cultured in the medium containing 10% FBS, 1% Sodium pyruvate, 1% NEAA and 1% Glutamax MEM, then were placed in the incubator containing 5% CO2 at 37° C., and the culture medium then was replaced every 2-3 days. When the confluence reached 80%, the subculture was carried out. […] After incubation at 37° C. for 30 minutes, Teer value was measured by cell resistance meter (Millicell-ERS2) to confirm the integrity of monolayer cells. […]
Some molecules, each annotated with its measured Papp B→A at 120 min.

Sample records with Papp B→A at 120 min:
Value of Papp B→A at 120 min reported for the molecule N#Cc1cnc(Nc2cc(-c3ccccc3OCC3CCNCC3)on2)cn1 [Compound 1.2] is 9.75 ×10⁻⁶ cm/s

Value of Papp B→A at 120 min reported for the molecule N#Cc1cnc(Nc2cc(-c3ccccc3OCC3CNCCO3)on2)cn1 (stereo not drawn) [Compound 1.1] is 8.7 ×10⁻⁶ cm/s

Here is the next item to consider.
Value of Papp B→A at 120 min reported for the molecule N#Cc1cnc(Nc2cc(-c3ccccc3OCC3CCCNC3)on2)cn1 (stereo not drawn) [Compound 1.3] is 11.2 ×10⁻⁶ cm/s

* * *

# assay.info: Kinetic solubility assay (nephelometry)
# condition.parameters: PBS, 37 °C, pH 7.4, aqueous buffer, kinetic from dmso stock
Some compounds, each annotated with its measured solubility kinetic at 1 h.
Value expressed in µM; do not type the unit.

Value of solubility kinetic at 1 h reported for the compound N#Cc1cnc(Nc2cc(-c3ccccc3O[C@H]3CC[C@@H](N)CC3)on2)cn1 [Compound 1.15] is 100

Value of solubility kinetic at 1 h reported for the compound N#Cc1cnc(Nc2cc(-c3ccccc3OCCCN)on2)cn1 [Compound 1.5] is 41.8

More entries:
Value of solubility kinetic at 1 h reported for the compound N#Cc1cnc(Nc2cc(-c3cc4ccccc4cc3OCCCN)[nH]n2)cn1 [Compound 2.7] is 21.3

Value of solubility kinetic at 1 h reported for the compound N#Cc1cnc(Nc2cc(-c3ccccc3OCC3CCCNC3)on2)cn1 (stereo not shown) [Compound 1.3] is 100

* * *

# assayed.system: CHK-1 kinase (Homo sapiens (Human))
# assay.info: CHK-1 % inhibition kinase assay (TR-FRET)
# Type: biochemical
# condition.parameters: CHK1 enzyme, compound 30 nM, ATP 15 μM
# Procedure: Inhibition of CHK-1 kinase or percent inhibition at defined concentrations was determined by TR-FRET assay. Kinase reactions were performed in a 20 μL volume in low-volume 384-well plates (Cat #Corning 4511). The concentration of substrate Fluorescein-CREBtide was maintained at 0.2 μM in the assay, and the kinase reaction buffer consisted of 50 mM HEPES pH 7.5, 0.01% BRIJ-35, 10 mM MgCl2, 1 mM EGTA. […]
Note to self: values exactly at 50% are YES. So inhibition at 0.03 µM at or above 50% is YES, below is NO.

Solved entries:
Q. Reported inhibition at 0.03 µM at or above 50%? N#Cc1cnc(Nc2cc(-c3cc4ccccc4cc3OCC3CNCCO3)[nH]n2)cn1 (stereo not drawn) [Compound 2.3]
A. NO

Q. Reported inhibition at 0.03 µM at or above 50%? N#Cc1cnc(Nc2cc(-c3ccccc3O[C@H]3CC[C@@H](N)CC3)on2)cn1 [Compound 1.15]
A. NO

Q. Reported inhibition at 0.03 µM at or above 50%? N#Cc1cnc(Nc2cc(-c3ccccc3OCC3CCNC3)on2)cn1 (stereo not drawn) [Compound 1.23]
A. YES

Q. Reported inhibition at 0.03 µM at or above 50%? N#Cc1cnc(Nc2cc(-c3cc4ccccc4cc3OCC3CNC3)[nH]n2)cn1 [Compound 2.2]
A. YES

Q. Reported inhibition at 0.03 µM at or above 50%? N#Cc1cnc(Nc2cc(-c3ccccc3OCCCN)on2)cn1 [Compound 1.5]
A. YES

Q. Reported inhibition at 0.03 µM at or above 50%? N#Cc1cnc(Nc2cc(-c3cc4ccccc4cc3OCCN)[nH]n2)cn1 [Compound 2.6]
A. YES

Consider now this further molecule.
Q. Reported inhibition at 0.03 µM at or above 50%? N#Cc1cnc(Nc2cc(-c3cc4ccccc4cc3OCC3CCNCC3)[nH]n2)cn1 [Compound 2.1]
A. NO
